- MEASURED_ON: Human VEGFA165 (human, UniProt P15692-4 27-191)
- Sequence (P15692 other isoform, or with tags, fused parts or gaps limits assumed): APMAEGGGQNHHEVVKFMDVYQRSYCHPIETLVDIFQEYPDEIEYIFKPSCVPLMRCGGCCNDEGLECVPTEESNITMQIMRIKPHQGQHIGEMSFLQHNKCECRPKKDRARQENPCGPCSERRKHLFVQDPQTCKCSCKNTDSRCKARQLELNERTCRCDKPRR
- EXPERIMENT_SUMMARY: cell-based or functional assay
Parameter Maximum inhibition rate (%) of HUVEC proliferation: see the listing below.
Kindly provide the numeric value in % only, without the unit symbol.

# annotated cases, reported Maximum inhibition rate (%) of HUVEC proliferation shown
Query :: What measured Maximum inhibition rate (%) of HUVEC proliferation goes with V13 (VHH, Purified with C-terminal GGGGS-6×His; also called candidate antibody V13) VHH: QLQLVESGGGSVQPGGSLRLSCEVSGRTFTSYTMGWFRQAPGKEREFVVAISKGGYKYDAVSLEARFTISKDNTKNTVYLQMNSLKPEDTAVYYCAGTRAYGSSRLRLADTYEYWGQGTQVTVSS ?
Result :: 94.7

Query :: One more binder: V1 (VHH, also called candidate antibody V1; antibody V1) VHH: QLQLVESGGGSVQPGGSLRLSCEVSGRTFSSYTMGWFRQAPGKEREFVVAISKGGYKYDSVSLEARFTISKDNTKNTVYLQMNSLKPEDTAVYYCAATRAYGSSRLRLADTYEYWGQGTQVTVSS
Result :: 103

Query :: One more binder: V15 (VHH, Purified with C-terminal GGGGS-6×His; also called candidate antibody V15) VHH: QLQLVESGGGSVQPGGSLRLSCEVSGRTFASYTMGWFRQAPGKEREFVVAISKGGYKYDSVSLEARFTISKDNTKNTVYLQMNSLKPEDTAVYYCAGTRAYGSSRLRLAETYEYWGQGTQVTVSS
Result :: 84.2

For the next question, use this binder.
Query :: What measured Maximum inhibition rate (%) of HUVEC proliferation goes with V30 (VHH, Purified with C-terminal GGGGS-6×His; also called candidate antibody V30) VHH: QLQLVESGGGSVQPGGSLRLSCEVSGRTFSSYTMGWFRQAPGKGREFVVAISKGGYKYDAVSLEARFTISKDNTKNTVYLQMNSLKPEDTAVYYCAATRAYGSSRLRLAKTYEYWGQGTQVTVSS ?
Result :: 87.4

Where do the numbers come from? From patent EP4582447A1.
